# Test system: lacZ under control of the tetA promoter (PtetA) in E. coli KM3
# Format: cell-based
# measurement.conditions: Table 4; tribenuron 20 ppm; 48 hrs at 30° C.
outcome.measure: relative β-galactosidase activity, inducer Tb

{"columns": ["molecule", "number"],
 "data": [
  ["L1-7: SU-responsive TetR(B) variant, library L1 hit, SEQ ID NO: 4 (protein, Sulfonylurea responsive repressor L1-07) MGSRLDKSKVINSALELLNEVGIEGLTTRKLAQKLGVEQPTLYWHVKNKRALLDALAIEMLDRHNTHFCPLEGESWQDFLRNNAKSWRCALLSHRDGAKVVLGTAITEKQYETHENPLAFLCQQGFSLENALYAIAAVRRFTLGCVLVDQERQVAKEERETPTTDSMPPLLRQASELQDHQGAEPAFLFGLELIICGLEKQLKCERGS", 0.2]
]}
